Test system: PPARg:RXRa 90nM:30nM, anti-RXR (NR concentration 90 nM, RXRa partner concentration 30 nM)
Assay: PBM binding z-score (relative to random genomic background probes); higher = stronger binding; sequences stand for … in GC…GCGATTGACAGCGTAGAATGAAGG
We use 0.8 as the dividing line for PBM binding z-score: on or above the line is satisfied, below is not satisfied.

Study these solved cases before continuing.
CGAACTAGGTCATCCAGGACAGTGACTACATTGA
satisfied
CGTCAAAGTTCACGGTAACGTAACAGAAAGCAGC
satisfied
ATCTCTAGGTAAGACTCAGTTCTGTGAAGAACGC
not satisfied

Can "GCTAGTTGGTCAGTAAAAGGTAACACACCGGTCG" be said to have PBM binding z-score at or above 0.8?
not satisfied

Can "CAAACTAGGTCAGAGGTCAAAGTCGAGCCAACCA" be said to have PBM binding z-score at or above 0.8?
satisfied

Can "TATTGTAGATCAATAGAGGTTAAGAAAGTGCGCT" be said to have PBM binding z-score at or above 0.8?
not satisfied

Can "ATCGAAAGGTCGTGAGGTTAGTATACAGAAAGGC" be said to have PBM binding z-score at or above 0.8?
satisfied
